- assay.details: Saturation mutagenesis of SEQ ID NO:109: dicamba decarboxylation activity of point mutants (CO2 released), fold of backbone (Tables 7, 8, Megatable 1)
- condition.summary: decarboxylation activity (CO2 released) of point mutant vs unmutated backbone protein; backbone SEQ ID NO: 109
metric: Fold Activity
// return the numeric value with its unit appended

Request: Entry 19 (protein, listed as Talaromyces marneffei) MATPIITLEEHYISSAIRDASETDHYAVFPSQIISKLNTLSTERLQDLDNGHVSLQVISHGPGAQPPYLCQAANDELASAISANPTRFAGFALLPIAEPQLAVQELERCITQHKFVGALIDNHTNGQFYDDQKFWPVFEKAQELDAPIYVHPSYPDEESGVAAHYRGNYDDRIAAALGAYGWGWHSDTALSILRLFAAGLFDTYPNIKIIIGHMGEMLPFQLERVIGIASRFGRSRGLREVWTQNIWVTTSGMFALAPLACLLQTMPIERVLYSVDYPFSANEKGFAFLEEIKKSGLIKEGEDWERFLYKNAQELLKVNV : reported Fold Activity = ?
Response: 1.6 fold

Attribution: patent US20160040149A1
